Recorded IC50 for molecules tested on HPK1 (Homo sapiens (Human), UniProt Q92918), drawn from a number of studies.

Use these answered entries as a reference point.
1) Cc1cccc(F)c1-n1nc2c(-c3ccc(N4CCN(C)CC4)cc3)n[nH]c2c(C)c1=O    50 to 500 nM
2) NC(=O)c1cnc(Nc2ccccc2)nc1Nc1cccc2c1CCNC2=O    24.4 nM
3) Cn1ccc2c(-c3ccc(-n4ccc(N5CCC[C@@](C)(O)C5)n4)c4c3CNC4=O)ccnc21 (single isomer, unassigned)    > 1000 nM

## Input Report IC50 under test system HPK1 (Homo sapiens (Human), UniProt Q92918) for "Cn1ccc2c(-c3ncc(Nc4ccc5c(n4)CNCC5)c4c3CNC4=O)ccnc21" .
## Output > 1000 nM

## Input Give the observed IC50 of CC(C)n1ncc2c(N3CC(N)C4(COC4)C3)c(NC(=O)c3ccc(=O)n(-c4c(F)cccc4F)n3)ccc21 (stereo not shown) for HPK1 (Homo sapiens (Human), UniProt Q92918).
## Output < 100 nM

## Input // fetch IC50 for "CN1CCN(CC2(O)CCN(c3ccc(Nc4cnc(-c5cnc6ccccn56)c5c4C(=O)NC5)nc3)CC2)CC1" ; system: HPK1 (Homo sapiens (Human), UniProt Q92918)
## Output < 100 nM

====

// compounds with reported IC50 on HPK1 (Homo sapiens (Human)), multi-publication

# count of solved cases: 5
1. Cc1ccc(NC(=O)c2cc(C(F)(F)F)ccn2)cc1C1=Cc2cnc(Nc3cnccc3O)nc2N2CCN=C12    0.1 to 10 µM
2. COc1ccncc1-c1cc2c(cn1)NC(=O)/C2=C(/C)Nc1cnn(C)c1    < 0.05 µM
3. O=C1NCc2c(-c3ccncc3)ccc(Nc3ccc(N4CCC(O)CC4)cn3)c21    < 1 µM
4. Cn1cc(Nc2ncc(C(N)=O)c(Nc3cccc4c3CCNC4=O)n2)cn1    0.00469 µM
5. COc1cc2c(cc1Nc1ncc(C(N)=O)c(N[C@H](C)C3CCCCC3)n1)CN(C)CC2    0.00132 µM

## Input Report the value of IC50 obtained on HPK1 (Homo sapiens (Human)) for "CN1CCN(c2ccc(Nc3ccc(-c4c[nH]c5ccccc45)c4c3C(=O)NC4)nc2)CC1" .
## Output < 0.1 µM

## Input # return IC50 for "C/C(Nc1cc(C)n(CCC(C)(C)O)n1)=C1/C(=O)Nc2cnc(-c3c(C)cccc3F)cc21" , test system: HPK1 (Homo sapiens (Human))
## Output < 0.05 µM

## Input Determine reported IC50 for "C[C@H]1CN(c2c(NC(=O)c3ccc(=O)n(-c4c(F)cccc4F)n3)ccc3nn([C@H]4CCOC4)cc23)C[C@@H]1N" ; test system: HPK1 (Homo sapiens (Human)).
## Output < 0.1 µM

====

Reported IC50 against HPK1 (Homo sapiens (Human), UniProt Q92918), gathered from multiple publications, appears below.

1. Cc1ccn2c(-c3ccc(Nc4ccc(N5CCC[C@H](C(C)(C)O)C5)cn4)c4c3CNC4=O)cnc2n1    < 100 nM
2. Cc1ncc(Nc2ncc3c(n2)N2CCN=C2C(c2cc(NC(=O)c4cc(C(F)(F)F)ccn4)ccc2C)=C3)s1    < 100 nM
3. CC(C)C(C)(C)n1cc2c(N3C[C@@H](C)[C@@H](N)C3)c(NC(=O)c3ccc(=O)n(-c4c(F)cccc4F)n3)ccc2n1    < 100 nM

## Input Provide HPK1 (Homo sapiens (Human), UniProt Q92918) IC50 reading for "Cn1ccc2c(-c3ncc(Nc4cccc(N5CCCNCC5)n4)c4c3CNC4=O)ccnc21" .
## Output 100 to 1000 nM

## Input Report value only: IC50, HPK1 (Homo sapiens (Human), UniProt Q92918), "CC(C)n1nc(F)c2c(N3C[C@@H](C)[C@@H](N)C3)c(NC(=O)c3ccc(=O)n(-c4c(F)cccc4F)n3)ccc21"
## Output < 100 nM

## Input Given "CCn1ncc(Nc2ncc3c(N)c(F)c(-c4cnc5c(c4C)NCCO5)cc3n2)c1C" , report its IC50 on HPK1 (Homo sapiens (Human), UniProt Q92918).
## Output 0.51 nM

## Input # assay system HPK1 (Homo sapiens (Human), UniProt Q92918): give IC50 of "COc1cc2c(cc1Nc1ncc(C(N)=O)c(Nc3ccccc3Br)n1)CN(C(=O)CC(F)(F)F)CC2"
## Output 11.1 nM

## Input Report measured IC50 on HPK1 (Homo sapiens (Human), UniProt Q92918); entry: Cc1c(-c2c(F)c(N)c3cnc(Nc4ccc5c(c4)CN(C)CC5)nc3c2Cl)cnc2c1NCCO2 (single isomer, unassigned)
## Output 2.93 nM

## Input Check HPK1 (Homo sapiens (Human), UniProt Q92918) data and give IC50 for "COc1cc2c(cc1Nc1ncc3ccc(NC4(C)COC4)cc3n1)CN(C)CC2" .
## Output 240 nM

## Input # return IC50 for "CNc1ncc2c(n1)N1CCN=C1C(c1nc(NC(=O)c3cc(C(F)(F)F)ccn3)ccc1C)=C2" , test system: HPK1 (Homo sapiens (Human), UniProt Q92918)
## Output > 10000 nM

## Input Would you please give the reported IC50 of "CN1CCN(c2nc(Nc3ccc(-c4cnc5cc(F)ccn45)c4c3C(=O)NC4)ccc2[C@@H]2CCOC2)CC1" with HPK1 (Homo sapiens (Human), UniProt Q92918)?
## Output < 100 nM

## Input Tell me IC50 of "COc1cccc(F)c1-c1cc2c(cn1)NC(=O)/C2=C(/C)Nc1ccc(N2CCN(C)CC2)cc1" when tested on HPK1 (Homo sapiens (Human), UniProt Q92918).
## Output < 50 nM
